Examples of sequences with documented melting temperature follow.
# Tested on: HeLa Kyoto;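 also: HeLa Kyoto cells synchronized by double thymidine or nocodazole block, proteins quantified by TMT10plex mass spectrometry, three independent biological replicates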
# RUN_DESCRIPTION: melting temperature (median over replicates), in situ; higher = more thermally stable
# MEASUREMENT_PARAMETERS: cell cycle stage: mitosis
READOUT: melting temperature (°C)

ENTRY_SEQUENCE	READOUT	SCALE_UNIT	RECORDED_NUMBER
MAGPELLLDSNIRLWVVLPIVIITFFVGMIRHYVSILLQSDKKLTQEQVSDSQVLIRSRVLRENGKYIPKQSFLTRKYYFNNPEDGFFKKTKRKVVPPSPMTDPTMLTDMMKGNVTNVLPMILIGGWINMTFSGFVTTKVPFPLTLRFKPMLQQGIELLTLDASWVSSASWYFLNVFGLRSIYSLILGQDNAADQSRMMQEQMTGAAMAMPADTNKAFKTEWEALELTDHQWALDDVEEELMAKDLHFEGMFKKELQTSIF [EMC3]	melting temperature	°C	53.7
MAAGTSSYWEDLRKQARQLENELDLKLVSFSKLCTSYSHSSTRDGRRDRYSSDTTPLLNGSSQDRMFETMAIEIEQLLARLTGVNDKMAEYTNSAGVPSLNAALMHTLQRHRDILQDYTHEFHKTKANFMAIRERENLMGSVRKDIESYKSGSGVNNRRTELFLKEHDHLRNSDRLIEETISIAMATKENMTSQRGMLKSIHSKMNTLANRFPAVNSLIQRINLRKRRDSLILGGVIGICTILLLLYAFH [GOSR1]	melting temperature	°C	52
MGSQALPPGPMQTLIFFDMEATGLPFSQPKVTELCLLAVHRCALESPPTSQGPPPTVPPPPRVVDKLSLCVAPGKACSPAASEITGLSTAVLAAHGRQCFDDNLANLLLAFLRRQPQPWCLVAHNGDRYDFPLLQAELAMLGLTSALDGAFCVDSITALKALERASSPSEHGPRKSYSLGSIYTRLYGQSPPDSHTAEGDVLALLSICQWRPQALLRWVDAHARPFGTIRPMYGVTASARTKPRPSAVTTTAHLATTRNTSPSLGESRGTKDLPPVKDPGALSREGLLAPLGLLAILTLAVATLYGLSLATPGE [TREX1]	melting temperature	°C	56.2
